Entry source: the supplement of paper PMC8967900

- System: 697
- Assay: selective drug sensitivity score (sDSS, relative to normal bone marrow) (sDSS (score)); higher = more potent and effective on the cell line relative to normal bone marrow cells;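 further: ALL cell lines in 384-well plates, five doses spanning 10,000-fold, each plate scaled between vehicle and 100 µmol/L benzalkonium chloride controls, sDSS an adapted area-under-curve metric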
- Condition info: 72 h
Below, each entry is listed with its recorded selective drug sensitivity score.
Lab note: jot the number down without any unit.

* CC[C@@](C)(Nc1ccnc(-c2c[nH]c3ncccc23)n1)C(=O)NCC(F)(F)F [Decernotinib] (top concentration 10000 nM) | -1.54
* C=CCn1c(=O)c2cnc(Nc3ccc(N4CCN(C)CC4)cc3)nc2n1-c1cccc(C(C)(C)O)n1 [AZD1775] (top concentration 10000 nM) | 15.4

Turning to the following compound.
Determine its reported selective drug sensitivity score: CCN(CC)CCOc1ccc(/C(=C(/Cl)c2ccccc2)c2ccccc2)cc1 [Clomifene] (top concentration 10000 nM)
0.92

---

Below, each entry is listed with its recorded selective drug sensitivity score.
- Tested on: 697
- Assay: selective drug sensitivity score (sDSS, relative to normal bone marrow) (sDSS (score)); higher = more potent and effective on the cell line relative to normal bone marrow cells
- Condition info: 72 h
Lab note: jot the number down without any unit.

* NC(=O)NO [Hydroxyurea] (top concentration 1000000 nM) | 12.8
* Cc1sc2c(c1C)C(c1ccc(Cl)cc1)=N[C@@H](CC(=O)Nc1ccc(OCCOCCOCCOCCNc3cccc4c3C(=O)N(C3CCC(=O)NC3=O)C4=O)cc1)c1nnc(C)n1-2 (stereo partly specified) [ARV-825] (top concentration 300 nM) | 3.14

State recorded selective drug sensitivity score with 697, entry Cn1cc(-c2cnn3c(N)c(Br)c([C@@H]4CCCNC4)nc23)cn1 [MK-8776] (top concentration 2500 nM) , no comment.
1.54

---

Below, each entry is listed with its recorded selective drug sensitivity score.
- Tested on: HAL-01
- Assay: selective drug sensitivity score (sDSS, relative to normal bone marrow) (sDSS (score)); higher = more potent and effective on the cell line relative to normal bone marrow cells
- Condition info: 72 h
Lab note: jot the number down without any unit.

- Cn1ncnc1[C@H]1c2n[nH]c(=O)c3cc(F)cc(c23)N[C@@H]1c1ccc(F)cc1 [Talazoparib] (top concentration 1000 nM): 6.58
- CC(=O)N(O)CCCCCNC(=O)CCC(=O)N(O)CCCCCNC(=O)CCC(=O)N(O)CCCCCN [Deferoxamine] (top concentration 10000 nM): 8.46
- COc1cc2c(cc1OC(C)C)[C@H](c1ccc(Cl)cc1)N(c1ccc(N(C)C[C@H]3CC[C@H](N4CCN(C)C(=O)C4)CC3)cc1)C(=O)C2 [NVP-CGM097] (top concentration 25000 nM): 10.6
- NC(=O)NO [Hydroxyurea] (top concentration 1000000 nM): 5.26
- CCCS(=O)(=O)Nc1ccc(F)c(C(=O)c2c[nH]c3ncc(-c4ccc(Cl)cc4)cc23)c1F [Vemurafenib] (top concentration 10000 nM): 0.16
- Cc1cn(-c2cc(NC(=O)c3ccc(C)c(Nc4nccc(-c5cccnc5)n4)c3)cc(C(F)(F)F)c2)cn1 [Nilotinib] (top concentration 10000 nM): 3.3

Determine its reported selective drug sensitivity score: COc1ccc(C[C@H](NC(=O)[C@H](C)NC(=O)CN2CCOCC2)C(=O)N[C@@H](Cc2ccccc2)C(=O)[C@@]2(C)CO2)cc1 [ONX-0914] (top concentration 10000 nM)
-9.3

Determine its reported selective drug sensitivity score: CC[C@H](C)C(=O)O[C@H]1C[C@@H](C)C=C2C=C[C@H](C)[C@H](CC[C@@H]3C[C@@H](O)CC(=O)O3)[C@H]21 [Lovastatin] (top concentration 10000 nM)
2.5

Determine its reported selective drug sensitivity score: Cc1ccc(Nc2nccc(N(C)c3ccc4c(C)n(C)nc4c3)n2)cc1S(N)(=O)=O [Pazopanib] (top concentration 10000 nM)
-0.16

Determine its reported selective drug sensitivity score: Cc1nn(C)c(COc2ccc(N3CCN(S(=O)(=O)N(C)C)CC3)cc2)c1-c1cccc2c(CCCOc3cccc4ccccc34)c(C(=O)O)n(CCN3CCOCC3)c12 (top concentration 50000 nM)
2.46

Determine its reported selective drug sensitivity score: Cc1cc(Nc2cc(N3CCN(C)CC3)nc(/C=C/c3ccccc3)n2)n[nH]1 [ENMD-2076] (top concentration 10000 nM)
5.54

Determine its reported selective drug sensitivity score: Cn1c(=O)n(-c2ccc(C(C)(C)C#N)cc2)c2c3cc(-c4cnc5ccccc5c4)ccc3ncc21 [Dactolisib] (top concentration 1000 nM)
9.66

---

- Test system: DND-41
- Assay: selective drug sensitivity score (sDSS, relative to normal bone marrow) (sDSS (score)); higher = more potent and effective on the cell line relative to normal bone marrow cells
- Condition info: 72 h
Parameter: selective drug sensitivity score
Lab note: jot the number down without any unit.

Determine its reported selective drug sensitivity score: OC[C@H]1O[C@@H](n2cnc3c2N=CNC[C@H]3O)C[C@@H]1O [Pentostatin] (top concentration 10000 nM)
-0.44

Determine its reported selective drug sensitivity score: CNc1nc(Nc2cn(C(C)(C)C#N)nc2C)ncc1C(F)(F)F [GNE-0877] (top concentration 1000 nM)
0

Determine its reported selective drug sensitivity score: Cc1c(-c2ccc(N3CCc4cccc(C(=O)Nc5nc6ccccc6s5)c4C3)nc2C(=O)O)cnn1CC12CC3CC(CC(C3)C1)C2 (top concentration 1000 nM)
19.7

Determine its reported selective drug sensitivity score: CO[C@H]1CC[C@H](N2C(=O)CNc3ncc(-c4ccc(C(C)(C)O)nc4)nc32)CC1 [CC-223] (top concentration 10000 nM)
1.32

Determine its reported selective drug sensitivity score: O=C(CCCCCCC(=O)Nc1ccccc1)NO [Vorinostat] (top concentration 10000 nM)
2.2

Determine its reported selective drug sensitivity score: COc1ccc(-c2nc(N3CCOCC3)c3sc(CN(C)c4ncc(C(=O)NO)cn4)cc3n2)cn1 [Fimepinostat (CUDC-907)] (top concentration 10000 nM)
4.68

---

- Tested on: NALL-1
- Assay: selective drug sensitivity score (sDSS, relative to normal bone marrow) (sDSS (score)); higher = more potent and effective on the cell line relative to normal bone marrow cells
- Condition info: 72 h
Parameter threshold = -0.2. Response is yes (1) when selective drug sensitivity score meets or exceeds it, else no (0).

* CC(C)C[C@@H](C(=O)N[C@H](C(=O)OC1CCCC1)c1ccccc1)[C@H](O)C(=O)NO [Tosedostat] (top concentration 10000 nM) | yes (1)
* Nc1nc2[nH]cnc2c(=S)[nH]1 [Thioguanine] (top concentration 10000 nM) | yes (1)
* CC[C@@H]1C(=O)N(C)c2cnc(Nc3ccc(C(=O)N[C@H]4CC[C@H](N5CCN(CC6CC6)CC5)CC4)cc3OC)nc2N1C(C)C [Volasertib] (top concentration 1000 nM) | yes (1)
* O=c1sn(-c2cccc3ccccc23)c(=O)n1Cc1ccccc1 [Tideglusib] (top concentration 3000 nM) | no (0)
* CCCS(=O)(=O)Nc1ccc(F)c(C(=O)c2c[nH]c3ncc(-c4ccc(Cl)cc4)cc23)c1F [Vemurafenib] (top concentration 10000 nM) | no (0)

Does the reported selective drug sensitivity score for O=C(NC[C@H](O)CN1CCc2ccccc2C1)c1cc(NC2COC2)ncn1 (top concentration 10000 nM) fall at or above the -0.2 mark?
yes (1)

Does the reported selective drug sensitivity score for CN(C)Cc1c(C(=O)NCCOc2ccc(C(=O)NO)cc2)oc2ccccc12 [Abexinostat] (top concentration 10000 nM) fall at or above the -0.2 mark?
yes (1)

Does the reported selective drug sensitivity score for C[C@]12C=CC(=O)C=C1CC[C@@H]1[C@@H]2[C@@H](O)C[C@@]2(C)[C@H]1CC[C@]2(O)C(=O)CO [Prednisolone] (top concentration 10000 nM) fall at or above the -0.2 mark?
yes (1)

Does the reported selective drug sensitivity score for COc1cc2nccc(Oc3ccc(NC(=O)NC4CC4)c(Cl)c3)c2cc1C(N)=O [Lenvatinib] (top concentration 2500 nM) fall at or above the -0.2 mark?
no (0)

Does the reported selective drug sensitivity score for COc1cc2c(cc1OC(C)C)[C@H](c1ccc(Cl)cc1)N(c1ccc(N(C)C[C@H]3CC[C@H](N4CCN(C)C(=O)C4)CC3)cc1)C(=O)C2 [NVP-CGM097] (top concentration 25000 nM) fall at or above the -0.2 mark?
no (0)

---

- Test system: P12-ICHIKAWA
- Assay: selective drug sensitivity score (sDSS, relative to normal bone marrow) (sDSS (score)); higher = more potent and effective on the cell line relative to normal bone marrow cells
- Condition info: 72 h
Below, each entry is listed with its recorded selective drug sensitivity score.
Lab note: jot the number down without any unit.

Worked examples follow.
* CO[C@H]1C(=O)[C@]2(C)[C@@H](OC)C[C@H]3OC[C@@]3(OC(C)=O)[C@H]2[C@H](OC(=O)c2ccccc2)[C@]2(O)C[C@H](OC(=O)[C@H](O)[C@@H](NC(=O)OC(C)(C)C)c3ccccc3)C(C)=C1C2(C)C [Cabazitaxel] (top concentration 1000 nM) | 3.08
* O=C(/C=C\n1cnc(-c2cc(C(F)(F)F)cc(C(F)(F)F)c2)n1)NNc1ccccn1 [Verdinexor] (top concentration 1000 nM) | 5.64
* CNC(=O)c1cc(COc2nnc(Nc3ccc(Cl)cc3)c3ccoc23)ccn1 [Telatinib] (top concentration 10000 nM) | 0
* NS(=O)(=O)NCCNc1nonc1/C(=N/O)Nc1ccc(F)c(Br)c1 [Epacadostat] (top concentration 10000 nM) | -0.26
* CNc1nc(Nc2cn(C(C)(C)C#N)nc2C)ncc1C(F)(F)F [GNE-0877] (top concentration 1000 nM) | 0
* FC(F)(F)c1ccc(/C=C/c2nc(COc3ccc(CCCCn4ccnn4)cc3)co2)cc1 [Mubritinib] (top concentration 1000 nM) | 20.7

Determine its reported selective drug sensitivity score: COc1cc2c(NC3CCN(C(C)C)CC3)nc(N3CCC(F)(F)CC3)nc2cc1OCCCN1CCCC1 [UNC0642] (top concentration 10000 nM)
-0.14
